molecular target: full-length MALT1 protein His-MALT1(1-824) (Homo sapiens, UniProt Q9UDY8); construct: full-length MALT1 protein His-MALT1(1-824); His (N); made in house; host or cells: baculovirus-infected insect cells; test: MALT1 protease assay, Assay 2 (1 nM MALT1, Ac-LRSR-AMC substrate); format: biochemical; conditions: 1 nM MALT1, 50 μM Ac-LRSR-AMC, 2 h pre-incubation, 8 hr incubation at RT
Sequence (Q9UDY8 whole entry): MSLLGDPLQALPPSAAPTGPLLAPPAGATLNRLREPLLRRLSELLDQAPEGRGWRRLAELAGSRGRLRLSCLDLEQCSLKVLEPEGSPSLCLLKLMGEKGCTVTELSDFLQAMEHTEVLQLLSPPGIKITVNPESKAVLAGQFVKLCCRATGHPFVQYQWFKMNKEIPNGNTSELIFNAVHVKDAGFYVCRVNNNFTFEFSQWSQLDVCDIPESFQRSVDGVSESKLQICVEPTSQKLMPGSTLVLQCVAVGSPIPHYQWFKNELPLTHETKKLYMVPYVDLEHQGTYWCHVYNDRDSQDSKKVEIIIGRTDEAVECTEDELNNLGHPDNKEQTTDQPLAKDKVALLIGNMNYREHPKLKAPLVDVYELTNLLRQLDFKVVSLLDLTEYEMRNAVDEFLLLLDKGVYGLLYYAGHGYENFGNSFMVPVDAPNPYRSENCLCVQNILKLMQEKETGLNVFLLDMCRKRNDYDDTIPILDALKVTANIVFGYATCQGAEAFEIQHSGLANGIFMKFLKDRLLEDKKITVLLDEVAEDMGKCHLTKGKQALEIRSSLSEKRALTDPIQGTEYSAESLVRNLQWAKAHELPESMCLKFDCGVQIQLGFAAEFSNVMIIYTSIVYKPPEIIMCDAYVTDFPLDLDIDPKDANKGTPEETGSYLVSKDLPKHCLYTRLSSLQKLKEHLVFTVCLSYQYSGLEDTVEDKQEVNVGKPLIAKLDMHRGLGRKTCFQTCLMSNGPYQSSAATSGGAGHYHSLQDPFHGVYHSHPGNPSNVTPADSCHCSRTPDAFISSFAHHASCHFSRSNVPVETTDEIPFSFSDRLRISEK
Known IC50 of a selection of compounds

Below, each entry is followed by its recorded IC50 result.
compound="CC1(C)C[C@H](C(=O)Nc2cc(C(F)F)c(-c3ncco3)c(=O)[nH]2)c2cnc3cc(Cl)nn3c21 (single isomer, unassigned)" target_or_system="full-length MALT1 protein His-MALT1(1-824) (Homo sapiens, UniProt Q9UDY8)" metric_name=IC50 value_observed="10 to 100 nM"
compound="CC1(C)CC(C(=O)Nc2cnc(-n3nccn3)c(C#N)c2)c2cnc3cc(F)nn3c21 (single isomer, unassigned) [Example 89]" target_or_system="full-length MALT1 protein His-MALT1(1-824) (Homo sapiens, UniProt Q9UDY8)" metric_name=IC50 value_observed="< 10 nM"
compound="CC1(C)CC(C(=O)Nc2cnc(-n3ncc(C#N)n3)c(Cl)c2)c2cnc3cc(Cl)nn3c21 (centres unmarked)" target_or_system="full-length MALT1 protein His-MALT1(1-824) (Homo sapiens, UniProt Q9UDY8)" metric_name=IC50 value_observed="≥ 1000 nM"
compound="CC1(C)CC(C(=O)Nc2cnc(-n3nccn3)c(C#N)c2)c2cnc3cc(F)nn3c21 (single isomer, unassigned) [Example 88]" target_or_system="full-length MALT1 protein His-MALT1(1-824) (Homo sapiens, UniProt Q9UDY8)" metric_name=IC50 value_observed="10 to 100 nM"

Okay, next one:
Value of IC50 reported for the compound CCNC(=O)c1ncc(NC(=O)C2CC(C)(C)c3c2cnc2cc(Cl)nn32)cc1C(F)(F)F (centres unmarked) is 10 to 100 nM
